Each item that follows carries a reported pIC50.
Target: Full-length wild type HIV-1 integrase (SF1) (Human immunodeficiency virus type 1 group M subtype B)
Construct: made in house; host or cells: E. coli BL21 (DE3)
Assay: Integrase strand-transfer scintillation proximity assay
Assay type: biochemical
Conditions: strand-transfer SPA, 246 nM integrase, 50 nM host DNA, 37° C., 50 min; read-out: IC50
Structures can show the parent of a compound that is named as a salt.
// pIC50: -log10(molar conc.)

- C[C@H](CO)NCc1cn(Cc2ccc(F)cc2)c2cnc3c(c12)CCN(O)C3=O: 7.68
- CC(NCc1cn(Cc2ccc(F)cc2)c2cnc3c(=O)n(O)ccc3c12)c1ccc(Br)cc1 (centres unmarked): 8.00
- CN(C1CCCC1)S(=O)(=O)c1cn(Cc2ccc(F)cc2)c2cnc3c(c12)CCN(O)C3=O: 6.04
- CC(=O)C1CCN(Cc2cn(Cc3ccc(F)cc3)c3cnc4c(c23)CCN(O)C4=O)CC1: 7.66
- CCOCCCOCc1cn(Cc2ccc(F)cc2)c2cnc3c(c12)CCN(O)C3=O [Example 51, hydrochloride]: 7.77

[Q] Need pIC50 of `O=C1c2ncc3c(c(C(=O)N4CCCC4)cn3Cc3ccc(F)cc3)c2CCN1O` , thanks.
[A] 7.80

[Q] Need pIC50 of `Cc1cc2c(ncc3c2c(CN(C)C)cn3Cc2ccc(F)cc2)c(=O)n1O` , thanks.
[A] 8.09

[Q] Need pIC50 of `CC(=O)CCCOCc1cn(Cc2ccc(F)cc2)c2cnc3c(c12)CCN(O)C3=O` , thanks.
[A] 8.00

[Q] Need pIC50 of `COC1CCN(C(=O)c2cn(Cc3ccc(F)cc3)c3cnc4c(c23)CCN(O)C4=O)CC1` , thanks.
[A] 7.85

[Q] Need pIC50 of `CCCN(CCO)Cc1cn(Cc2ccc(F)cc2)c2cnc3c(=O)n(O)c(C)cc3c12` , thanks.
[A] 7.77

[Q] Need pIC50 of `O=C1c2ncc3c(c(CNCc4ccc(F)c(F)c4)cn3Cc3ccc(F)cc3)c2CCN1O` , thanks.
[A] 7.77

[Q] Need pIC50 of `O=C1c2ncc3c(c(Cl)cn3Cc3ccc(F)cc3)c2CCN1O` , thanks.
[A] 7.72

Data provenance is patent US20070099915A1.
